Tested on: K12877-001-R-J1-PDC complex spheroid viability;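 further: tumour cells co-cultured with HUVEC and mesenchymal stem cells in spheroids; spheroids exposed to agents for one week before readout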
Test: Anticancer human tumor K12877-001-R-J1-PDC patient-derived lung adenocarcinoma cell line growth inhibition [RAS]
Details: second compound 0.00949 µM; first compound 1 µM; active compounds read low
measuredParameter: viability, T/C (%)
Numbers only, in %.

molecule: C[C@@H](NC(=O)c1ncnc(N)c1Cl)c1ncc(C(=O)Nc2cc(C(F)(F)F)c(Cl)cn2)s1 + CCn1c(-c2cc(N3CCN(C)CC3)cnc2C(C)OC)c2c3cc(ccc31)-c1csc(n1)CC(NC(=O)C1CC1C)C(=O)N1CCCC(N1)C(=O)OCC(C)(C)C2
viability, T/C (%): 69.5

# batch size: 2; output viability, T/C per entry
1. Cc1nc(N2CCC3(CC2)COC(C)C3N)c(CO)nc1Sc1ccnc(N)c1Cl (centres undefined) + CCn1c(-c2cccnc2C(C)OC)c2c3cc(ccc31)N1CCOC(CC(NC(=O)C(C(C)C)N(C)C(=O)C3(F)CCN(C(=O)C#CC(C)(C)N(C)C)CC3)C(=O)N3CCCC(N3)C(=O)OCC(C)(C)C2)C1
2. C=CC(=O)N1CCN(c2nc(OCC3CCCN3C)nc3c(F)c(-c4nc(N)cc(C)c4C(F)(F)F)c(Cl)cc23)C(C)C1 (centres undefined) + CCn1c(-c2cccnc2C(C)OC)c2c3cc(ccc31)N1CCOC(CC(NC(=O)C(C(C)C)N(C)C(=O)C3(F)CCN(C(=O)C#CC(C)(C)N(C)C)CC3)C(=O)N3CCCC(N3)C(=O)OCC(C)(C)C2)C1

1. 57.4
2. 78.6

Tell me reported viability, T/C for C[C@@H](NC(=O)c1ncnc(N)c1Cl)c1ncc(C(=O)Nc2cc(C(F)(F)F)c(Cl)cn2)s1 + CCn1c(-c2cccnc2C(C)OC)c2c3cc(ccc31)N1CCOC(CC(NC(=O)C(C(C)C)N(C)C(=O)C3(F)CCN(C(=O)C#CC(C)(C)N(C)C)CC3)C(=O)N3CCCC(N3)C(=O)OCC(C)(C)C2)C1 , tested with K12877-001-R-J1-PDC complex spheroid viability.
73.4
